# System: PC3 cells
# assay text: XTT assay for cell viability, PC3 cells
# Assay type: cell-based, human
# reported conditions: Homo sapiens, PC-3, cell viability
pIC50: −log10 of the molar value.
The entries below are paired with their reported pIC50.
property label: pIC50

• CN(C)C(=O)c1ccc(NC(=O)Nc2ccc(-c3nc(N4CCOCC4)c4ccc(-c5cccnc5)cc4n3)cc2)cc1F = 5.00 to 6.70
• CN(C)C(=O)c1ccc(NC(=O)Nc2ccc(-c3nc(N4CCOCC4)c4cc(F)c(-c5cccc(S(C)(=O)=O)c5)cc4n3)cc2)cc1 = > 7.00
• CN(C)[C@@H]1CCN(C(=O)c2ccc(NC(=O)Nc3ccc(-c4nc(N5CCOCC5)c5ccc(-c6cncnc6)cc5n4)cc3)cc2)C1 = 5.00 to 6.70
• COc1cccc(-c2ccc3c(N4CCOCC4)nc(-c4ccc(NC(=O)Nc5ccc(C(=O)N(C)C)cc5)cc4)nc3c2)n1 = > 7.00
• COc1ncc(-c2cnc3c(N4CCOCC4)nc(-c4ccc(NC(=O)Nc5ccc(C(=O)N(C)C)cc5)cc4)nc3c2)cn1 = 5.00 to 6.70
• CN1CCN(C(=O)c2ccc(NC(=O)Nc3ccc(-c4nc(N5CCOCC5)c5ncc(-c6cnn(C)c6)cc5n4)cc3)cc2)CC1 = 5.30 to 6.30

Provenance of the data: patent US9115092B2
